Molecular target: Calmodulin-1 (Homo sapiens)
Assay: calcium-bound CALM1 binders on microarrays, profiling panel, artefact control for SMM control-protein annotation, biochemical, small-molecule microarray, Cy5-labelled CALM1, plus calcium (AID 1112);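 also: score merges spot fluorescence with signal to noise from triplicate slides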
Details: Cy5-CALM1 binding fluorescence, higher = more signal

compound	composite z-score
Cc1c(-c2ccc(-c3ccc(Cl)c(Cl)c3)o2)nc(-c2ccccc2)c2c1CO[Si]2(C(C)C)C(C)C	-0.0727
C=C(CCCC)C(=O)CC[C@H](OC(C)=O)c1ccccc1OCCO	-1.13
Cc1ccc(F)cc1S(=O)(=O)N[C@@H]1CCN(Cc2ccc3[nH]ccc3c2)C1	-0.754
C=CCC(OC(C)=O)[C@@H]1[C@@H](N(Cc2cc3ccccc3o2)C(=O)c2cccc3ccccc23)c2cc(OCCCO)ccc2N1C(=O)c1ccc2ccccc2c1 (some centres undefined)	0.63
